Overview of reported GI50 across a group of compounds:
Test system: SF-295
Test: NCI tumour cell line growth inhibition, 48 h
Counter-ions that a name gives are not always drawn. Calls of active or inactive are those of the source. Rule as the data show it: active = GI50 up to about 1.1 µM and inactive = higher.
QUANTITY KIND: GI50

COMPOUND: CC(=O)NCc1c(C(N)=O)ncn1Cc1ccccc1
QUANTITY KIND: GI50
ENDPOINT VALUE: > 100 µM (inactive)
--
COMPOUND: O=c1[nH]c(=O)n(C2CC(O)C(CO)O2)cc1C#Cc1cc(F)cc(F)c1 (configuration not stated)
QUANTITY KIND: GI50
ENDPOINT VALUE: > 100 µM (inactive)
--
COMPOUND: O=C1C(F)=CC(COC(c2ccccc2)(c2ccccc2)c2ccccc2)OC1n1cc(F)c(=O)[nH]c1=O (configuration not stated)
QUANTITY KIND: GI50
ENDPOINT VALUE: 2.2 µM (inactive)
--
COMPOUND: OCCc1ccsc1-c1sc(-c2cc(CCO)c(-c3sccc3CCO)s2)cc1CCO
QUANTITY KIND: GI50
ENDPOINT VALUE: 15.1 µM (inactive)
--
COMPOUND: COc1ccc(C2(CN(C)C)COc3cc(OC)c(OC)cc3C2=O)cc1OC (configuration not stated)
QUANTITY KIND: GI50
ENDPOINT VALUE: 92.9 µM (inactive)
--
COMPOUND: CCOc1ccc(-n2nnc3c(N)nc(N)nc32)cc1
QUANTITY KIND: GI50
ENDPOINT VALUE: > 100 µM (inactive)
--
COMPOUND: COC(=O)C[S+]([O-])c1ccccc1 (configuration not stated)
QUANTITY KIND: GI50
ENDPOINT VALUE: 36.6 µM (inactive)
--
COMPOUND: Cc1nc2ccc(S(=O)(=O)Nc3ccc(Cl)cc3)cc2c(=O)n1NC(=O)CNc1ccc(Cl)cc1
QUANTITY KIND: GI50
ENDPOINT VALUE: > 100 µM (inactive)
--
COMPOUND: C[C@H](N)C(=O)N[C@@H]1[C@H]2C(=C(O)C[C@@H](O)[C@@H]2O)C(=O)O[C@@H]1C
QUANTITY KIND: GI50
ENDPOINT VALUE: > 100 µM (inactive)
--
COMPOUND: Cc1cc(O)c2c(c1)CC(O)C1=C2C(=O)c2c(O)ccc(OC3CC(O)C(OC4CC(OC5CCC(O)C(C)O5)C(O)C(C)O4)C(C)O3)c2C1=O (configuration not stated)
QUANTITY KIND: GI50
ENDPOINT VALUE: 2.34 µM (inactive)
--
COMPOUND: COc1ccc(C(=O)c2sc(Nc3ccc(Cl)cc3)nc2N)cc1
QUANTITY KIND: GI50
ENDPOINT VALUE: 11.1 µM (inactive)
--
COMPOUND: COc1cccc(N2C(=O)C3CC(CC(C)(C)C)c4c([nH]c5ccccc45)C3C2=O)c1 (configuration not stated)
QUANTITY KIND: GI50
ENDPOINT VALUE: > 10 µM (inactive)
--
COMPOUND: COc1ccc(CC#C/C=C/C(=O)NCC(C)C)cc1
QUANTITY KIND: GI50
ENDPOINT VALUE: > 100 µM (inactive)
--
COMPOUND: CCC1CCC2CCCC(C)N12 (configuration not stated)
QUANTITY KIND: GI50
ENDPOINT VALUE: > 100 µM (inactive)
--
COMPOUND: CCOC(=O)NC(=O)c1cn(CCCOC(=O)CCCCCCCCCCC(=O)OCCCn2cc(C(=O)NC(=O)OCC)c(=O)n(C)c2=O)c(=O)n(C)c1=O
QUANTITY KIND: GI50
ENDPOINT VALUE: > 100 µM (inactive)
--
COMPOUND: CCCC(Sc1ccccc1)P(=O)(c1ccccc1)c1ccccc1 (configuration not stated)
QUANTITY KIND: GI50
ENDPOINT VALUE: 27.8 µM (inactive)
--
COMPOUND: O=C(CCN1CCCCC1)c1csc2ccccc12
QUANTITY KIND: GI50
ENDPOINT VALUE: > 100 µM (inactive)
--
COMPOUND: Cn1c2cc(O)cc(O)c2c(=O)c2c([N+](=O)[O-])cccc21
QUANTITY KIND: GI50
ENDPOINT VALUE: > 100 µM (inactive)
--
COMPOUND: COC(=O)CCC(=O)NC1=C(Nc2ccccc2)C(=O)c2ccccc2C1=O
QUANTITY KIND: GI50
ENDPOINT VALUE: 15.4 µM (inactive)
--
COMPOUND: C=Cc1c(C)c(O)cc2c1-c1ccc(O)c(C)c1CC2
QUANTITY KIND: GI50
ENDPOINT VALUE: 14.9 µM (inactive)
--
COMPOUND: O=C(/C=C/c1ccsc1)c1ccc(Cl)cc1
QUANTITY KIND: GI50
ENDPOINT VALUE: > 100 µM (inactive)
--
COMPOUND: CCc1cccc(C)c1NC(=O)CCc1nnc(SC)o1
QUANTITY KIND: GI50
ENDPOINT VALUE: > 100 µM (inactive)
--
COMPOUND: O=C1C[S+]([O-])C23c4cc5ccccc5n4CCC2CCCN13 (configuration not stated)
QUANTITY KIND: GI50
ENDPOINT VALUE: > 100 µM (inactive)
--
COMPOUND: N#Cc1c(N2CCC(O)C2)c2ccccc2n2c1nc1ccccc12 (configuration not stated)
QUANTITY KIND: GI50
ENDPOINT VALUE: 31 µM (inactive)
--
COMPOUND: COC(=O)C1C(O)C(C)C(O)C(C)C=C(C)C2=C3C(=C(C)C(=O)c4c(O)c(c(C)c(OC(C)=O)c43)NC(=O)C(C)=C/C=C\C(C)C(O)C(C)C1O)OCO2 (configuration not stated)
QUANTITY KIND: GI50
ENDPOINT VALUE: 51.6 µM (inactive)
--
COMPOUND: CCCC(C)NC1=C(NC(C)=O)C(=O)c2ccccc2C1=O (configuration not stated)
QUANTITY KIND: GI50
ENDPOINT VALUE: > 100 µM (inactive)
--
COMPOUND: CCOC(=O)/C(I)=C/c1cc(OC)c(OC)c(OC)c1
QUANTITY KIND: GI50
ENDPOINT VALUE: 9.91 µM (inactive)
--
COMPOUND: O=C(O)C(Br)Cc1ccc2c(c1)OCO2 (configuration not stated)
QUANTITY KIND: GI50
ENDPOINT VALUE: 55.5 µM (inactive)
--
COMPOUND: O=C(O)[C@@H]1NC[C@H]2C(Br)=NO[C@H]21
QUANTITY KIND: GI50
ENDPOINT VALUE: > 100 µM (inactive)
--
COMPOUND: CO[C@H]1CC[C@]2(C)C3=CC[C@@]4(C)C(CC[C@@H]4C(C)CC[C@@H](C)C(C)C)C(=CCC2C1)O3 (some centres not stated)
QUANTITY KIND: GI50
ENDPOINT VALUE: > 25 µM (inactive)
--
COMPOUND: NCCS [CYSTEAMINE HYDROCHLORIDE]
QUANTITY KIND: GI50
ENDPOINT VALUE: > 100 µM (inactive)
--
COMPOUND: COc1ccc(OC)c([N+](=O)[O-])c1-c1nc2sccn2c1/C=N/N=C(N)N
QUANTITY KIND: GI50
ENDPOINT VALUE: > 100 µM (inactive)
--
COMPOUND: CCOC(=O)c1c(SCC#N)n(-c2ccccc2)c(=S)n(-c2ccccc2)c1=O
QUANTITY KIND: GI50
ENDPOINT VALUE: 32.1 µM (inactive)
--
COMPOUND: CC1=NC2(CCCCC2)N(Cl)C(=O)C1SC#N (configuration not stated)
QUANTITY KIND: GI50
ENDPOINT VALUE: 18.7 µM (inactive)
--
COMPOUND: COC(=O)C1C(OS(=O)(=O)O)CCC2CN3CCc4c([nH]c5ccccc45)C3CC21 (configuration not stated)
QUANTITY KIND: GI50
ENDPOINT VALUE: > 100 µM (inactive)
--
COMPOUND: O=C1OC(CCCl)(c2ccccc2)CC1CN1CCOCC1 (configuration not stated)
QUANTITY KIND: GI50
ENDPOINT VALUE: 43 µM (inactive)
--
COMPOUND: O=C(/N=C(/Nc1ccccc1)SCCS/C(=N\C(=O)c1ccccc1)Nc1ccccc1)c1ccccc1
QUANTITY KIND: GI50
ENDPOINT VALUE: 58.9 µM (inactive)
--
COMPOUND: Oc1[nH]c(Nc2cccc(Br)c2)nc2ncnc1-2
QUANTITY KIND: GI50
ENDPOINT VALUE: > 100 µM (inactive)
--
COMPOUND: N#C[BH2-][n+]1cn(C2CC(OP(=O)(O)OCC3OC(n4cnc5c(N)ncnc54)CC3O)C(CO)O2)c2nc(N)[nH]c(=O)c21 (configuration not stated)
QUANTITY KIND: GI50
ENDPOINT VALUE: > 100 µM (inactive)
--
COMPOUND: CC(=O)Nc1ccc(S(=O)(=O)Nc2cnc3ccccc3n2)cc1
QUANTITY KIND: GI50
ENDPOINT VALUE: > 100 µM (inactive)
--
COMPOUND: CC1(C)CC2=C(SC3C=CC=CC3N2)C(=O)C1C(=O)C(N)=O (configuration not stated)
QUANTITY KIND: GI50
ENDPOINT VALUE: > 100 µM (inactive)
--
COMPOUND: Cc1ccc(NC(=O)C(=O)C(C#N)c2ccccc2C)cc1C (configuration not stated)
QUANTITY KIND: GI50
ENDPOINT VALUE: > 100 µM (inactive)
